Data origin, for the record: patent US8481586B2

- SYSTEM TESTED: PIM-1 (Homo sapiens (Human))
- Sequence (P11309 whole entry, species assumed): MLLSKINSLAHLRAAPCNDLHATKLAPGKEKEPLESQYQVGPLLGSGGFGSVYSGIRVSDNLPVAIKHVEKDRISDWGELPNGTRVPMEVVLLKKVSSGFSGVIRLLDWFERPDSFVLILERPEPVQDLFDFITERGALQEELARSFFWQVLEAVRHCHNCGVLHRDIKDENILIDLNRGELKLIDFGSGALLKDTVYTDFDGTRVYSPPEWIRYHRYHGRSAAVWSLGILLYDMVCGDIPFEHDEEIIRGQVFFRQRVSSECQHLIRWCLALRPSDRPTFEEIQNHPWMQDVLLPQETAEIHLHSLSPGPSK
ENDPOINT NAME: IC50 (nM)
// note: answer is a bare numeric in nM

- QUERY SMILES: "NC(=O)c1c[nH]c2c1ccc1c3ccccc3[nH]c12"
  IC50 [nM]: 780
- QUERY SMILES: "O=Cc1c[nH]c2c1ccc1c3cc(-c4ccc(F)cc4F)ccc3[nH]c12"
  IC50 [nM]: 660

Let us examine a further case.
Q) Fill in: IC50 of O=Cc1c[nH]c2c1ccc1c3cc(Br)ccc3[nH]c12 is ___
A) 570

* * *

- SYSTEM TESTED: PIM-3 (Homo sapiens (Human), UniProt Q86V86)
- EXPERIMENTAL PROTOCOL: inhibition test on kinase PIM-3 (residual activity, IC50)
- Assay type: biochemical
- EXPERIMENTAL PARAMETERS: product at 10 μmol/L; Table 2; N.I. = not inhibitory; read-out: Percentage of residual activity PIM-3
// assign True if remaining activity at 10 µM falls strictly below 10%, else False (ties count as False)

- QUERY SMILES: "O=Cc1c[nH]c2c1ccc1c3cc(Br)ccc3[nH]c12"
  CLASS ASSIGNMENT: "True"

Q) Is remaining activity at 10 µM strictly under 10% for the entry O=Cc1c[nH]c2c1ccc1c3cc(F)ccc3[nH]c12 ?
A) True

Q) A record lists Cc1ccc2c(c1)[nH]c1c2ccc2cc[nH]c21 . Is its remaining activity at 10 µM below 10%?
A) False
